Each recorded value in this set is attributed to ChEMBL document CHEMBL4414652.

# protocolDetails: in vivo
# experimentalSetup: mouse, faeces, iv
# Description: Drug recovery in iv dosed mouse feces
parameterMeasured: dose excreted (%)

smilesCode	cmp	recordedNumber
O=C(NCc1cc(F)cc(F)c1)[C@@]1(O)CCN(c2cnc3[nH]ccc3c2)C1=O	<	1
O=C(NCc1cc(F)cc(Cl)c1)[C@@]1(O)CCN(c2ccc3[nH]ccc3c2)C1=O	<	1
O=C(NCc1cc(F)cc(F)c1)[C@@]1(O)CCN(c2ccc3[nH]ncc3c2)C1=O	<	1
O=C(NCc1cc(F)cc(Cl)c1)[C@@]1(O)CCN(c2ccc3[nH]ncc3c2)C1=O	<	1
O=C(NCc1cc(F)cc(Cl)c1)[C@@]1(O)CCN(c2cnc3[nH]ccc3c2)C1=O	=	2.3
O=C1CCc2cc(N3CC[C@](O)(C(=O)NCc4cc(F)cc(Cl)c4)C3=O)ccc2N1	=	23
O=C(NCc1cc(F)cc(Cl)c1)[C@@]1(O)CCN(c2cnc3[nH]cc(Cl)c3c2)C1=O	=	1.5
O=C(NCc1cc(F)cc(F)c1)[C@@]1(O)CCN(c2cnc3[nH]cc(Cl)c3c2)C1=O	=	2.7
